target: T1, cynomolgus monkey CD3 E&D complex protein (Sino Biological Inc., CT032-00323H) (cynomolgus monkey, UniProt Q95LI5 22-117; Q95LI8 22-105); experiment: BLI, antibody on sensor
T1 construct: bought heterodimer
T1 sequence (Q95LI5 22-117, chain 1 of 2): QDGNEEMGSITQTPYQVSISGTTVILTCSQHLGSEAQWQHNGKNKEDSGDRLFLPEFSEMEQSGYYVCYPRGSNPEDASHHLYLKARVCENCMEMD
T1 sequence (Q95LI8 22-105, chain 2 of 2): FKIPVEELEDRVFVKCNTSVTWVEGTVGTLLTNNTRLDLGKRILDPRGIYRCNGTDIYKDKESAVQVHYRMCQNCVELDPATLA
MEASUREMENT KIND: koff
Answer with the value and then the unit.

BINDER: hzsp34.39 (antibody, human IgG1, kappa, L234A L235A, V domains shown, IgG1 L234A L235A, kappa) VH: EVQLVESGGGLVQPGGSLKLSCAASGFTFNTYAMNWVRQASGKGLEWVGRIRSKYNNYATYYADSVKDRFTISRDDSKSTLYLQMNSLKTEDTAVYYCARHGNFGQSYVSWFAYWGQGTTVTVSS VL: EIVMTQSPATLSVSPGERATLSCRSSTGAVTTSNYANWVQQKPGQAPRGLIGGTNKRAPGVPARFSGSGSGTEFTLTISSLQSEDFAVYYCALWYSNLWVFGQGTKLTVLR
VALUE MEASURED: 0.00203 s⁻¹

Next binder, koff to be filled in.
Task: May I ask what koff has been recorded for hzsp34.37 (antibody, human IgG1, kappa, L234A L235A, V domains shown, IgG1 L234A L235A, kappa) VH: EVQLVESGGGLVQPGGSLKLSCAASGFTFNTYAMNWVRQASGKGLEWVGRIRSKYNNYATYYADSVKDRFTISRDDSKNTLYLQMNSLKTEDTAVYYCARHGNFGNSYVSWFAYWGQGTTVTVSS VL: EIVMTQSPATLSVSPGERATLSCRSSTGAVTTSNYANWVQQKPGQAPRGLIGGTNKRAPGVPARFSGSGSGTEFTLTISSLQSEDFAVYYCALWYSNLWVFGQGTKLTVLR ?
Result: 0.002 s⁻¹
